Each recorded value in this set is attributed to ChEMBL document CHEMBL4706594.

# Subject Of Test: Aryl hydrocarbon receptor (Homo sapiens)
# Assay Context: HepG2, human, 24 h, read-out: RUmax;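 further: agonist mode luciferase reporter assay of AhR transactivation in transfected cells with a CYP1A1 reporter, compounds at 10 uM, expressed relative to control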
# Description: Agonist activity at AhR in human HepG2 cells co-transfected with pSELECT-zeo-Lucia and CYP1A1 assessed as induction of receptor transactivation at 10 uM incubated for 24 hrs by luciferase reporter gene assay relative to control
Measured Property: activity at 10 µM (%)

Worked cases, answers included:
>>> df
                                   compound  unit_descriptor  quantitative_result
0  CC(=O)Oc1ccc(C(c2ccc(C)cc2)c2ccccn2)cc1 (stereo not drawn)                %                 9.42
1  CC(=O)Oc1ccc(C(c2ccccn2)n2nnc3ccccc32)cc1 (stereo not drawn)                %                 9.23
2  CC(=O)Oc1ccc(C(c2ccc(Br)cc2)c2ccccn2)cc1 (stereo not drawn)                %                 6.32
3  CC(=O)Oc1ccc(C(c2ccc(Cl)cc2)c2ccccn2)cc1 (stereo not drawn)                %                 6.26
4  CC(=O)Oc1ccc(C(c2ccc(OC(C)=O)cc2)c2ccccn2)cc1                %                 6.58

1 = CC(=O)Oc1ccc(C(c2ccc(F)cc2)c2ccccn2)cc1 (stereo not drawn)
2 = COc1ccc(C(c2ccccn2)c2c[nH]c3ccccc23)cc1 (stereo not drawn)
3 = CC(=O)Oc1ccc(C(c2ccccn2)c2c(OC(C)=O)ccc3ccccc23)cc1 (stereo not drawn)
## Input Please give the order of these compounds when sorted by activity at 10 µM, largest value leading. As an answer, provide the labels arranged in the order called for.
## Output 2, 1, 3

====

# Subject Of Test: Aryl hydrocarbon receptor (Homo sapiens, UniProt P35869)
# Sequence (P35869 whole entry): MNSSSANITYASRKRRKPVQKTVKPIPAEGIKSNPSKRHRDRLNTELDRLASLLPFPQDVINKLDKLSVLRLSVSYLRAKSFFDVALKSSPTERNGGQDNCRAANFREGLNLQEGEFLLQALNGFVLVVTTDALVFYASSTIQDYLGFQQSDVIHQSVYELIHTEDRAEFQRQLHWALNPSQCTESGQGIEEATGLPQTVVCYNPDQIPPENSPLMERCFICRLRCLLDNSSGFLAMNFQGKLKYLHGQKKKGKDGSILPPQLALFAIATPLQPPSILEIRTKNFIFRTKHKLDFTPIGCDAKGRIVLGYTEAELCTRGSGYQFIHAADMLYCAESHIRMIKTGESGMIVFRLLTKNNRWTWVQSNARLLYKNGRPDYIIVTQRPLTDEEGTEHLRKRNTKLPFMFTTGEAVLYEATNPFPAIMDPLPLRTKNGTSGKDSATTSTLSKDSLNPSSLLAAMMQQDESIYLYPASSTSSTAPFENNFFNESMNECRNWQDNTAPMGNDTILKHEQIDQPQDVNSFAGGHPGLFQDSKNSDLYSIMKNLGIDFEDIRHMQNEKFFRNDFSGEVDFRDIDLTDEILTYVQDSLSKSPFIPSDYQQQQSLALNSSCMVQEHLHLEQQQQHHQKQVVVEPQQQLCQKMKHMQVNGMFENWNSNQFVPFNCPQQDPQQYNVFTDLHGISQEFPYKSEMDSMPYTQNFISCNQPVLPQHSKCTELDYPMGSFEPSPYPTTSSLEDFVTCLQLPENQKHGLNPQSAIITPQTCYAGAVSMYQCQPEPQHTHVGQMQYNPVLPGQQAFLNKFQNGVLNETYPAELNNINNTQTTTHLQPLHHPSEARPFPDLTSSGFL
# Assay Context: HepG2, human, 24 h, read-out: RUmax
Measured Property: activity at 10 µM (%)

>>> df
                                   molecule  measured_property  quantitative_result
0  Cc1ccc(C(c2ccccn2)c2ccccc2O)cc1 (stereo not given)  activity at 10 µM                 6.93
1  CC(=O)Oc1ccc(C(c2ccc(Cl)cc2)c2cccc[n+]2[O-])cc1 (stereo not given)  activity at 10 µM                 7.78
2  CC(=O)Oc1ccc(C(c2ccc(Br)cc2)c2cccc[n+]2[O-])cc1 (stereo not given)  activity at 10 µM                  8.8
3  Cc1ccc(C(c2ccc(O)cc2)c2ccccn2)cc1 (stereo not given)  activity at 10 µM                 7.09
4  COc1ccc(C(c2ccccn2)c2cccs2)cc1 (stereo not given)  activity at 10 µM                 10.5
5  CC(=O)Oc1ccc(C(c2ccc(F)cc2)c2cccc[n+]2[O-])cc1 (stereo not given)  activity at 10 µM                 6.51
6  Oc1ccc(C(c2ccc(F)cc2)c2ccccn2)cc1 (stereo not given)  activity at 10 µM                 7.79
7  Oc1ccccc1C(c1ccc(F)cc1)c1ccccn1 (stereo not given)  activity at 10 µM                 6.89
8  CC(=O)Oc1ccc(C(c2ccc(C)cc2)c2cccc[n+]2[O-])cc1 (stereo not given)  activity at 10 µM                 6.28
9  Oc1ccc(C(c2ccc(Br)cc2)c2ccccn2)cc1 (stereo not given)  activity at 10 µM                 7.71
